# test.summary: Toxicity in human H3255 cells expressing L858R EGFR mutant xenografted in mouse administered ip 3 times per week
# Assay type: organism-based
# experimental.setup: in vivo

{"smiles.record": "C=CCNC1=C2C[C@@H](C)C[C@H](OC)[C@H](O)[C@@H](C)/C=C(\\C)[C@H](OC(N)=O)[C@@H](OC)/C=C\\C=C(/C)C(=O)NC(=CC1=O)C2=O", "MTD [mg/kg]": 75}

###

# System: PC-9
# test.summary: Cytotoxicity against HGF-induced erlotinib-resistant human PC9 cells assessed as inhibition of cell growth after 72 hrs by MTT assay
# Format: functional, cell-based
# experimental.setup: PC-9, 72 h
pIC50: −log10 of the molar value.
test.readout: pIC50

{"compound": "CO[C@H]1/C=C\\C=C(/C)C(=O)NC2=CC(=O)C(NCCN(C)C)=C(C[C@@H](C)C[C@H](OC)[C@H](O)[C@@H](C)/C=C(\\C)[C@@H]1OC(N)=O)C2=O [ALVESPIMYCIN]", "measurement.target": "PC-9", "test.readout": "pIC50", "recorded.measurement": "7.52 to 8.00"}
